Source listed as patent EP4035684A1.

Test system: MV522 cell line
Test: cells
Type: cell-based
Details: read-out: Mean IC50 value (nM) ± SD, N=3 unless otherwise indicated; MV522 Target Cell Line; 2 hr exposure; MV522 target cell line, 2 hr exposure; mean ± SD, N=3 unless otherwise indicated
measure-name: IC50 (nM)
Unit nM implied. Number only.

Worked examples, 3 compounds total:
| compound | test-target | IC50 / nM |
| --- | --- | --- |
| CC1=C2C(=CC(C)(O)C2O)C(=NO)C(C)(O)C12CC2 (stereo not drawn) | MV522 cell line | 47000 |
| CC1=C(Cn2ccc(=O)[nH]c2=O)C2=C(C)C3(CC3)[C@@](C)(O)C(=O)C2=C1 | MV522 cell line | 51 |
| CC(=O)Oc1ccc(-n2nnnc2SCC2=C(C)C=C3C(=O)[C@](C)(O)C4(CC4)C(C)=C32)cc1 | MV522 cell line | 8200 |

Q: Find the measured IC50 of CC(=O)OCC1(C)C(OC(C)=O)C2=C(C)C3(CC3)C(C)(O)C(=O)C23CC31 (stereo not drawn) and report it.
A: 99000

---

System: 8392B cell line
Assay: cells
Assay type: cell-based
Details: 48 h, read-out: Mean IC50 value (nM) ± SD, N=3 unless otherwise indicated; 8392B Nontarget Cell Line; 48 hr exposure
measure-name: IC50

Q: Find the measured IC50 of CC(=O)OCC1(C)C=C2C(=O)[C@](C)(O)C3(CC3)C(C)=C2C1O (stereo partly shown) and report it.
A: < 10 nM

---

Tested on: NCI 60 cell line panel
Experiment: NCI DTP 60 cell line screen assay
Settings: ability to actually kill tumor cells versus only inhibiting growth
Where a SMILES comes first, the peptide text is derived from it. [ ]: non-standard residue; d: D form. The star is where a group is joined. Dolaproine = CO[C@@H]([C@@H]1CCCN1)[C@@H](C)C(=O)O; Dil = CC[C@H](C)[C@H](NC)[C@@H](CC(=O)O)OC; X1 = C[C@@H](N*)[C@@H](O)c1ccccc1; NMeV = CN[C@H](C(=O)O)C(C)C
measure-name: Cytotoxicity

| compound | measure-name | result |
| --- | --- | --- |
| CC1=C(CNO)C2=C(C)C3(CC3)[C@@](C)(O)C(=O)C2=C1 [compound 394] | Cytotoxicity | Yes |
| CC1=C2C(=C[C@@](C)(COS(C)(=O)=O)[C@@H]2O)C(=O)[C@](C)(O)C12CC2 [analog 362] | Cytotoxicity | cytotoxic |
| CC(=O)OC[C@]1(C)C=C2C(=O)[C@](C)(O)C3(CC3)C(C)=C2[C@H]1OC(=O)N(C)CCN(C)C(=O)OC(C)(C)C [analog 334] | Cytotoxicity | cytotoxic |
| CC(=O)OC[C@]1(C)C=C2C(=O)[C@](C)(O)C3(CC3)C(C)=C2[C@H]1OC(=O)N(C)CCN(C)C(=O)OC(C)(C)C [compound 334] | Cytotoxicity | Yes |
| CC(=O)OCC1(C)C=C2C(=O)[C@](C)(O)C3(CC3)C(C)=C2C1O (stereo partly shown) | Cytotoxicity | Yes |
| COC(=O)C1=C(C(=O)OC)C23C=C(C)C1C2=C(C)C1(CC1)[C@@](C)(O)C3=O (stereo partly shown) | Cytotoxicity | Yes |
| CC[C@H](C)[C@@H]([C@@H](CC(=O)N1CCC[C@H]1[C@H](OC)[C@@H](C)C(=O)N[C@H](C)[C@@H](O)c1ccccc1)OC)N(C)C(=O)[C@@H](NC(=O)[C@@H](NC)C(C)C)C(C)C [MMAE, reference compound] (H-[NMeV]V[Dil][Dolaproine]-X1) | Cytotoxicity | No |
| CC1=C2C(=C[C@@](C)(C=O)[C@@H]2O)C(=O)[C@](C)(O)C12CC2 [compound 383] | Cytotoxicity | Yes |

Q: Find the measured Cytotoxicity of CC(=O)O[C@@H]1C2=C(C)C3(CC3)[C@@](C)(O)C(=O)C2=C[C@@]1(C)CO [analog 371] and report it.
A: cytotoxic

Q: Find the measured Cytotoxicity of CC1=C2C(=C[C@@](C)(C=O)[C@@H]2O)C(=O)[C@](C)(O)C12CC2 [analog 383] and report it.
A: cytotoxic

---

Test system: Prostate DuPro (trace PSA)
Assay: Activity of PSA cleavable analogs against trace PSA cell line, 48 hour exposure
Type: cell-based
Conditions: Homo sapiens, N=3, mean ± SD
measure-name: IC50 (nM)
Unit nM implied. Number only.

Q: Find the measured IC50 of CC1=C2C(=C[C@@](C)(CO)[C@@H]2O)C(=O)[C@](C)(O)C12CC2 [Illudin S] and report it.
A: 11

---

Test system: NCI 60 cell line panel
Assay: NCI DTP 60 cell line screen assay
Conditions: ability to actually kill tumor cells versus only inhibiting growth

| molecule | Cytotoxicity |
| --- | --- |
| CC(=O)O[C@@H]1C2=C(C)C3(CC3)[C@@](C)(O)C(=O)C2=C[C@@]1(C)CO [compound 371] | Yes |
| CC1=C(CCCOC(=O)C(N)CC(C)C)C2=C(C)C3(CC3)[C@@](C)(O)C(=O)C2=C1 (stereo partly shown) | Yes |
| CC1=C2C(=C[C@@](C)(COS(C)(=O)=O)[C@@H]2O)C(=O)[C@](C)(O)C12CC2 [compound 362] | Yes |

---

Test system: MV522 cell line
Test: cells
Format: cell-based
Conditions: read-out: Mean IC50 value (nM) ± SD, N=3 unless otherwise indicated; MV522 Target Cell Line; 2 hr exposure; MV522 target cell line, 2 hr exposure; mean ± SD, N=3 unless otherwise indicated
Reported IC50 values for the following molecules.

Worked examples, 3 molecules total:
| molecule | result |
| --- | --- |
| CC1=C(COCCBr)C2=C(C)C3(CC3)[C@@](C)(O)C(=O)C2=C1 | 530 nM |
| CCCCCCCC/C=C/CCCCCCCC(=O)OCC1=C(C)C=C2C(=O)[C@](C)(O)C3(CC3)C(C)=C21 | > 59000 nM |
| CC1=CC2=C(C)C3(CC3)C(C)(O)C(=NO)C2=C1 (stereo not shown) | > 200000 nM |

Consider the additional molecule presented here.
Q: Find the measured IC50 of CC1=C(CCCNS(=O)(=O)NO)C2=CC3(CC3)C(C)(O)C(=O)C2=C1 (stereo not shown) and report it.
A: 810 nM

---

System: Prostate PC3 (negative PSA)
Assay: Activity of PSA cleavable analogs against PSA negative cell line, 48 hour exposure
Type: cell-based
Settings: N=3, mean ± SD
measure-name: IC50
Could you kindly put the unit after your number?

Q: Find the measured IC50 of CC1=C2C(=C[C@@](C)(CO)[C@@H]2O)C(=O)[C@](C)(O)C12CC2 and report it.
A: 16 nM

---

Test system: MV522 cell line
Assay: cells
Type: cell-based
Conditions: read-out: Mean IC50 value (nM) ± SD, N=3 unless otherwise indicated; MV522 Target Cell Line; 2 hr exposure; MV522 target cell line, 2 hr exposure; mean ± SD, N=3 unless otherwise indicated
measure-name: IC50 (nM)
Unit nM implied. Number only.

Worked examples, 2 molecules total:
| molecule | IC50 / nM |
| --- | --- |
| CC1=C(CNC(=O)NCCCl)C2=C(C)C3(CC3)[C@@](C)(O)C(=O)C2=C1 [compound 282] | 680 |
| CC1=C(Cn2c(=O)[nH]cc(F)c2=O)C2=C(C)C3(CC3)[C@@](C)(O)C(=O)C2=C1 [compound 287] | 455000 |

Consider the additional molecule presented here.
Q: Find the measured IC50 of CC1=C(CCCOC(=O)NCCCl)C2=C(C)C3(CC3)[C@@](C)(O)C(=O)C2=C1 [compound 238] and report it.
A: 780

---

Tested on: MV522 cell line
Test: cells
Assay type: cell-based
Details: MV522, 2 h, read-out: Mean IC50 value (nM) ± SD, N=3 unless otherwise indicated; MV522 Target Cell Line; 2 hr exposure
Reported IC50 values for the following compounds.

| compound | IC50 |
| --- | --- |
| CC1=C(CO)C2=C(C)C3(CC3)[C@@](C)(O)C(=O)C2=C1 | 110 nM |

Consider the additional compound presented here.
Q: Find the measured IC50 of CC(=O)OCC1(C)C=C2C(=O)[C@](C)(O)C3(CC3)C(C)=C2C1O (some centres unmarked) and report it.
A: 2700 nM

---

System: MV522 cell line
Test: cells
Assay type: cell-based
Conditions: read-out: Mean IC50 value (nM) ± SD, N=3 unless otherwise indicated; MV522 Target Cell Line; 2 hr exposure; MV522 target cell line, 2 hr exposure; mean ± SD, N=3 unless otherwise indicated
*1 amine or outer side, *2 acyl side, *3 side chain or, on linkers, in order; H or OH if unused. Where a SMILES comes first, the peptide text is derived from it. [ ]: non-standard residue; d: D form. The star is where a group is joined. ξ: configuration not given here. X2 = CC1=C(CCCN*)C2=C(C)C3(CC3)[C@@](C)(O)C(=O)C2=C1; X4 = CC1=C(C*)C2=C(C)C3(CC3)[C@@](C)(O)C(=O)C2=C1; Morpholide = C1CN(*)CCO1; CO = O=C([*:1])[*:2]; ξC = NC(CS)C(=O)O
measure-name: IC50

| compound | IC50 |
| --- | --- |
| CC1=C(CSCC(N)C(=O)N[C@@H](CCCNC(=N)N)C(=O)NCC(=O)N[C@@H](CC(N)=O)C(=O)NC(CSCC2=C(C)C=C3C(=O)[C@](C)(O)C4(CC4)C(C)=C32)C(=O)O)C2=C(C)C3(CC3)[C@@](C)(O)C(=O)C2=C1 (some centres unmarked) [compound 101] (H-[ξC](X4)RGN[ξC](X4)-OH) | > 8000 nM |
| CCCCCCCC/C=C/CCCCCCCC(=O)OCCCC1=C(C)C=C2C(=O)[C@](C)(O)C3(CC3)C(C)=C21 [compound 227] | > 57000 nM |
| CC1=C(CCCNC(=O)[C@H](CC(C)C)NC(=O)[C@H](CCC(N)=O)NC(=O)[C@H](CC(C)C)NC(=O)[C@H](CCCCN)NC(=O)[C@H](CO)NC(=O)[C@H](CO)NC(=O)[C@H](Cc2c[nH]cn2)NC(=O)N2CCOCC2)C2=C(C)C3(CC3)[C@@](C)(O)C(=O)C2=C1 [compound 221] ({Morpholide-CO}-HSSKLQL-X2) | > 21000 nM |
| CC1=C2C(O)C(C)(C)C3CC23C(=O)C(C)(O)C12CC2 (centres unmarked) [compound 252] | > 380000 nM |

Consider the additional compound presented here.
Q: Lab note: record IC50 of CC1=C2C(=CC(C)(CO[Si](C)(C)C(C)(C)C)C2OC(=O)c2ccc(S(=O)(=O)F)cc2)C(=O)C(C)(O)C12CC2 (centres unmarked) [compound 219] tested on MV522 cell line.
A: > 52000 nM
